TARGET SYSTEM: Human P2Y12 receptor (Homo sapiens, UniProt Q9H244)
Construct: expressed in transfected cells; host or cells: HEK cells
Sequence (Q9H244 whole entry): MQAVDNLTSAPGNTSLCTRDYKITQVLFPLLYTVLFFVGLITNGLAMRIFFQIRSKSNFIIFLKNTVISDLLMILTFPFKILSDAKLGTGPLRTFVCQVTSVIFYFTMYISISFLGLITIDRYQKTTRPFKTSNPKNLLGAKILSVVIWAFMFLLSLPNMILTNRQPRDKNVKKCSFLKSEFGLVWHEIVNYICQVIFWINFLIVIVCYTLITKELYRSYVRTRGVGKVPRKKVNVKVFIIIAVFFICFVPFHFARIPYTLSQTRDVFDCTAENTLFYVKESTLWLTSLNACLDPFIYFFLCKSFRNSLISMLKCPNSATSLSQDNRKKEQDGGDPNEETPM
PROTOCOL: Human P2Y12 receptor cell membrane binding assay with [3H] 2-Mes-ADP
MEASUREMENT CONDITIONS: 1 nM [3H] 2-Mes-ADP, membranes of HEK cells expressing P2Y12 receptor; read-out: Binding activity (IC50)
As shown below, each of these compounds has a reported pIC50 value.
Note on pIC50: it is the negative log10 of concentration, concentration in mol/L.

Some solved entries appear below for comparison.
COMPOUND STRING | pIC50
CCc1cc2c(N3CCn4c(nnc4-c4ccccc4)C3)nc(N3CCNC(=O)C3)nc2s1 | 5.71
CCc1cc2c(N3CCc4c(ncnc4C(F)(F)F)C3)nc(N3CCNC(=O)C3)nc2s1 | 5.98
CCCc1cc2c(N3CCn4c(nnc4C(F)(F)F)C3)nc(N3CC[C@H](NC(=O)Cc4c[nH]cn4)C3)nc2s1 | 7.42

Req: Recorded pIC50 of "CCCc1cc2c(N3CCn4c(nnc4C(F)(F)F)C3)nc(N3CCNc4ccccc43)nc2s1" , please.
Resp: 7.00

Req: Try the compound "CCc1cc2c(N3CCn4c(nnc4C(F)(F)F)C3)nc(N3CCN(C)CC3)nc2s1"
Resp: 6.66

Req: Try the compound "CCCc1cc2c(N3CCn4c(nnc4C(F)(F)C(F)(F)F)C3)nc(N3CCN(C)CC3)nc2s1"
Resp: 6.50

Req: Try the compound "CCCc1cc2c(N3CCn4c(nnc4C(F)(F)F)C3)nc(Oc3ccc(C(=O)OC)cc3)nc2s1"
Resp: 6.33

Req: Try the compound "CCCc1cc2c(N3CCn4c(nnc4C(F)(F)F)C3)nc(Oc3ccccc3)nc2s1"
Resp: 6.75

* * *

TARGET SYSTEM: Human P2Y12 receptor (Homo sapiens, UniProt Q9H244)
Construct: expressed in transfected cells; host or cells: HEK cells
PROTOCOL: Human P2Y12 receptor cell membrane binding assay with [3H] 2-Mes-ADP
MEASUREMENT CONDITIONS: 1 nM [3H] 2-Mes-ADP, membranes of HEK cells expressing P2Y12 receptor; read-out: Binding activity (IC50)
Procedure: Human P2Y12 Receptor Cell Membrane Binding Assay with [^3H] 2-Mes-ADP Whether test compounds bind to P2Y12 receptor is measured by [3H]-2MesADP binding in HEK cells expressing P2Y12 receptor. […] The volume of 100 μL of 200 μg membrane protein was aliquoted into 96 well plate. […] Radioactivity bound to P2Y12 receptor membrane was counted in a scintillation counter. […]
READOUT: pIC50
Note on pIC50: it is the negative log10 of concentration, concentration in mol/L.

COMPOUND STRING | READOUT | VALUE
CCCc1cc2c(N3CCn4c(nnc4C(F)(F)F)C3)nc(N3CCc4ccccc43)nc2s1 | pIC50 | 6.28

Req: Recorded pIC50 of "CCCc1cc2c(N3CCn4c(nnc4C(F)(F)F)C3)nc(N[C@H]3CCNC3)nc2s1" , please.
Resp: 6.89

Req: Try the compound "O=C1CN(c2nc(N3CCn4c(nnc4C(F)(F)F)C3)c3cc(CCC(F)(F)F)sc3n2)CCN1"
Resp: 6.44

Req: Try the compound "CCc1cc2c(N3CCn4c(nnc4C(F)(F)F)C3)nc(OCCO)nc2s1"
Resp: 6.22
